Values compiled from ChEMBL document CHEMBL1862790.

// reported pIC50 per item
# ASSAY_TEXT: DNDI: Cytotoxicity against L-6 rat myoblasts from skeletal muscle cells
# CONDITION_PARAMETERS: L6 rat skeletal muscle myoblast cells, IC50
pIC50: −log10 of the molar value.
READOUT_TYPE: pIC50

• OC(c1ccccc1)(c1cncnc1)c1ccccc1Cl (stereo not given) = < 4.00
• CC(C)c1ccc(S(=O)(=O)N2CCC(NC(c3ccc(C(F)(F)F)cc3)c3cnccn3)CC2)cc1 (stereo not given) = 4.66
• Cc1cc(C(=O)NC2CCN(C(c3cncnc3)c3ccc(Cl)cc3F)CC2)[nH]n1 (stereo not given) = < 4.00
• Clc1ccc(C(c2cccnc2)N2CCCCC2)cc1 (stereo not given) = < 4.00
• CC(C)Oc1ncc(C(O)(c2ccc(Cl)cc2)c2cccnc2)cn1 (stereo not given) = < 4.00
• CC(C)c1ccc(S(=O)(=O)NC2CCN(C(c3cnccn3)c3ccc(F)cc3F)CC2)cc1 (stereo not given) = 4.59
• N#Cc1ccc(C(c2cccnc2)N2CCC(NC(=O)c3ccno3)CC2)cc1 (stereo not given) = < 4.00
• CC(C)Oc1ccc(C(c2cccnc2)N2CCC(NS(C)(=O)=O)CC2)cc1 (stereo not given) = < 4.00
• CC(C)(C)NC(=O)N1CCC(NC(c2cccnc2)c2ccc(Cl)cc2F)CC1 (stereo not given) = < 4.00
• CS(=O)(=O)N1CCN(C(c2ccc(C(F)(F)F)cc2)c2cncnc2)CC1 (stereo not given) = < 4.00
• O=C(Cc1ccccc1)NC(c1ccc(C(F)(F)F)cc1)c1cnccn1 (stereo not given) = < 4.00
• Cc1cc(C(=O)NC2CCN(C(c3ccc(C(F)(F)F)cc3)c3cccnc3)CC2)n(C)n1 (stereo not given) = 4.26
• CS(=O)(=O)Nc1ccc(C(O)(c2ccc(Cl)cc2)c2cccnc2)cc1 (stereo not given) = < 4.00
• Cc1ncoc1C(=O)NC1CCN(C(c2ccc(C(F)(F)F)cc2)c2cccnc2)CC1 (stereo not given) = 4.07
• O=C(Nc1ccccc1)NC1CCN(C(c2cncnc2)c2ccc(Cl)cc2F)CC1 (stereo not given) = 4.25
• CCOC(=O)N1CCN(C(c2cccnc2)c2ccc(Cl)cc2F)CC1 (stereo not given) = 4.22
• CCCC=C(c1ccc(Cl)cc1)c1cccnc1 = 4.10
• N#Cc1ccc(C(c2cccnc2)N2CCN(C(=O)C3CC3)CC2)cc1 (stereo not given) = < 4.00
• CS(=O)(=O)N1CCC(NC(c2cnccn2)c2ccc(F)cc2F)CC1 (stereo not given) = < 4.00
• O=C(NC1CCN(C(c2cccnc2)c2ccc(Cl)cc2F)CC1)c1ccccc1 (stereo not given) = 4.25
• O=S(=O)(Cc1ccccc1)N1CCN(C(c2cncnc2)c2ccc(Cl)cc2F)CC1 (stereo not given) = 4.20
• CC(C)Oc1ccc(C(c2cccnc2)N2CCN(C(=O)C(C)C)CC2)cc1 (stereo not given) = < 4.00
• Clc1ccc(C(NCc2ccccc2)c2cccnc2)cc1 (stereo not given) = < 4.00
• CN(C)C(=O)c1cccc(C(O)(c2ccc(Cl)cc2)c2cccnc2)c1 (stereo not given) = < 4.00
• Cc1cnc(C(O)(c2ccc(Cl)cc2)c2cncnc2)cn1 (stereo not given) = < 4.00
• N#Cc1ccc(C(c2cccnc2)N2CCC(NC(=O)c3ccccc3C(F)(F)F)CC2)cc1 (stereo not given) = < 4.00
• O=C(C1CC1)N1CCC(NC(c2ccc(Cl)cc2)c2cccnc2)CC1 (stereo not given) = < 4.00
• CCS(=O)(=O)N1CCC(NC(c2ccc(C(F)(F)F)cc2)c2cnccn2)CC1 (stereo not given) = < 4.00
• CC(C)(C)NC(=O)N1CCN(C(c2cncnc2)c2ccc(Cl)cc2F)CC1 (stereo not given) = < 4.00
• CC(C)N(C(=O)c1cccc(C(O)(c2ccc(Cl)cc2)c2cccnc2)c1)C(C)C (stereo not given) = 4.26

* * *

# ASSAY_TEXT: DNDI: Cytotoxicity against L-6 rat myoblasts from skeletal muscle cells
# CONDITION_PARAMETERS: L6 rat skeletal muscle myoblast cells, IC50
READOUT_TYPE: IC50

- FC(F)(F)c1ccc(N2CCC(NC(c3ccc(Cl)cc3)c3cccnc3)CC2)nc1 (centres undefined): 55.3 µM
- Cc1cc(C(=O)N2CCC(NC(c3ccc(C(F)(F)F)cc3)c3cccnc3)CC2)n(C)n1 (centres undefined): > 100 µM
- CS(=O)(=O)NC1CCN(C(c2ccc(C#N)cc2)c2cccnc2)CC1 (centres undefined): > 100 µM
- CC(C)(C)OC(=O)NC1CCN(C(c2ccc(C#N)cc2)c2cccnc2)CC1 (centres undefined): > 100 µM
- CCN(CC)C(=O)c1cccc(C(O)(c2ccc(Cl)cc2)c2cccnc2)c1 (centres undefined): > 100 µM
- CC(C)C(O)(c1ccc(Cl)cc1)c1cncnc1 (centres undefined): > 100 µM
- CC(C)(C)C(=O)N1CCN(C(c2ccc(C#N)cc2)c2cccnc2)CC1 (centres undefined): > 100 µM
- CS(=O)(=O)N1CCN(C(c2cncnc2)c2ccc(Cl)cc2F)CC1 (centres undefined): > 100 µM
- O=C(NC1CCCC1)c1cccc(C(O)(c2ccc(Cl)cc2)c2cccnc2)c1 (centres undefined): 60.8 µM

* * *

# Tested on: L6
# ASSAY_TEXT: DNDI: Cytotoxicity against L-6 rat myoblasts from skeletal muscle cells
# CONDITION_PARAMETERS: L6 rat skeletal muscle myoblast cells
For each record, check the reported IC50: if it is below 70 µM write label 1, else write label 0.

- OC(c1ccc(C(F)(F)F)cc1)(c1cccnc1)c1cc2ccccc2s1 (stereo unspecified): label 1
- CS(=O)(=O)c1ccc(N2CCC(NC(c3cccnc3)c3ccc(Cl)cc3F)CC2)cc1 (stereo unspecified): label 1
- OC(c1ccc(Cl)cc1)(c1cccnc1)c1cccc(Br)c1 (stereo unspecified): label 1
- O=C(Oc1ccccc1)N1CCN(C(c2cccnc2)c2ccc(Cl)cc2F)CC1 (stereo unspecified): label 1
- O=C(C1CCCCC1)N1CCC(NC(c2ccc(C(F)(F)F)cc2)c2cnccn2)CC1 (stereo unspecified): label 0
- CC(C)(C)C(=O)N1CCN(C(c2cccnc2)c2ccc(C(F)(F)F)cc2F)CC1 (stereo unspecified): label 0
- O=S(=O)(c1ccccc1)N1CCN(C(c2ccc(Cl)cc2)c2cccnc2)CC1 (stereo unspecified): label 1
- OC(c1ccc(Cl)cc1)(c1cccnc1)c1ccccc1Br (stereo unspecified): label 1
- CON=C(Cc1cccnc1)c1ccc(Cl)cc1Cl: label 0
- FC(F)(F)c1ccc(C(NC2CCN(c3nccs3)CC2)c2cccnc2)cc1 (stereo unspecified): label 1
- CC(C)Oc1ccc(C(O)(c2ccc(OC(C)C)cc2)c2cccnc2)cc1: label 1
- NC(c1ccc(Cl)cc1)(c1cccnc1)c1ccccc1Cl (stereo unspecified): label 0
- OC(c1ccc(Cl)cc1)(c1cccnc1)c1cccs1 (stereo unspecified): label 1
- CS(=O)(=O)N1CCN(C(c2cccnc2)c2ccc(C(F)(F)F)cc2F)CC1 (stereo unspecified): label 0

* * *

# ASSAY_TEXT: DNDI: Cytotoxicity against L-6 rat myoblasts from skeletal muscle cells
# CONDITION_PARAMETERS: L6 rat skeletal muscle myoblast cells, IC50
READOUT_TYPE: IC50 (µM)

• Cc1nc(C(=O)NC2CCN(C(c3ccc(C(F)(F)F)cc3)c3cccnc3)CC2)co1 (stereo not given) = 56.4
• O=C(NCc1ccccc1)c1cccc(C(O)(c2ccc(Cl)cc2)c2cccnc2)c1 (stereo not given) = 84
• Fc1cc(Cl)ccc1C(NC1CCN(c2ccc(C(F)(F)F)cc2F)CC1)c1cccnc1 (stereo not given) = 51.5
• Fc1cnc(N2CCC(NC(c3cccnc3)c3ccc(Cl)cc3F)CC2)nc1 (stereo not given) = 73.3
• CC(C)(C)OC(=O)N1CCC(NC(c2ccc(C(F)(F)F)cc2)c2cnccn2)CC1 (stereo not given) = 62.8
• Fc1cc(Cl)cc(N2CCC(NC(c3cccnc3)c3ccc(Cl)cc3F)CC2)c1 (stereo not given) = 53.1
• O=C(NC1CCN(C(c2ccc(Cl)cc2)c2cccnc2)CC1)c1ccccc1 (stereo not given) = 64.1
• O=C(NC1CCN(C(c2cnccn2)c2ccc(F)cc2F)CC1)c1ccc(C(F)(F)F)cc1 (stereo not given) = 63.6
• Fc1cc(Cl)ccc1C(NC1CCN(Cc2ccc(Cl)cc2Cl)CC1)c1cccnc1 (stereo not given) = 43
• Cc1ccc(C(O)(c2ccc(Cl)cc2)c2cncnc2)cc1 (stereo not given) = 79.3
• FC(c1ccc(Cl)cc1)(c1cccnc1)c1ccccc1Cl (stereo not given) = 59.7
• O=C(NC1CCN(C(c2ccc(Cl)cc2)c2cncnc2)CC1)c1ccccc1 (stereo not given) = 90.8
• OC(c1ccc(Cl)cc1)(c1ccc(Cl)cc1)c1cc(-c2ccccc2)on1 = 53.6
• CC(C)(C)OC(=O)NC1CCN(C(c2cccnc2)c2ccc(Cl)cc2F)CC1 (stereo not given) = 55.1
• O=S(=O)(C1CCCCC1)N1CCN(C(c2cncnc2)c2ccc(Cl)cc2F)CC1 (stereo not given) = 61.3
